experiment: Human HepG2 cell viability assay in 384 well format; type: toxicity, cell-based; design: dose 125 nL, time 70.5 hour; concentration not given beside the values; details: HepG2 cells, read-out: Inhibition
Recorded cytotoxicity at 70.5 h values for a group of compounds are listed next.
measurement-label: cytotoxicity at 70.5 h (%)

compound | measurement-label | observed-measurement
CCc1nnc2n1CCN(C(=O)c1cnc3ccccc3n1)C2 | cytotoxicity at 70.5 h | -4.54
O=C(Nc1ccc(I)cc1C(=O)NCCN1CCOCC1)c1ccco1 | cytotoxicity at 70.5 h | 8.88
CC1CN(CC(=O)Nc2ccncc2)CCN1c1nccs1 (stereo unspecified) | cytotoxicity at 70.5 h | -2.52
CC(c1ccc2c(c1)OCO2)N1Cc2nc(N(C)C)ncc2C1=O (stereo unspecified) | cytotoxicity at 70.5 h | -0.989
O=C(NCC1CC2(CO1)CN(c1nncs1)C2)C1CCC1 (stereo unspecified) | cytotoxicity at 70.5 h | -3.65
COc1cccc(CCN2C[C@H]3CCNCC[C@H]3S2(=O)=O)c1 | cytotoxicity at 70.5 h | 23.9
CNc1cc(C2CCCNC2)nc(C)n1 (stereo unspecified) | cytotoxicity at 70.5 h | 16.2
c1cncc(N2CCOCC3(CCCN(Cc4cccs4)C3)C2)c1 (stereo unspecified) | cytotoxicity at 70.5 h | 0.445
Cc1cc(C(=O)N2CC[C@@H]3CN(S(C)(=O)=O)CCO[C@@H]3C2)c(C)o1 | cytotoxicity at 70.5 h | -5.13
CO[C@H]1CC[C@H]2[C@H]1OCCN2Cc1ccc(F)c(F)c1 | cytotoxicity at 70.5 h | 36.7
CC(C)c1nsc(N2CCn3c(nnc3C(F)(F)F)C2)n1 | cytotoxicity at 70.5 h | 4.03

----------
Recorded cytotoxicity at 70.5 h for the following compounds
experiment: Human HepG2 cell viability assay in 384 well format; type: toxicity, cell-based; set-up: dose 125 nL, time 70.5 hour; concentration not given beside the values; conditions: HepG2 cells, read-out: Inhibition
measurement-label: cytotoxicity at 70.5 h (%)

compound | observed-measurement
O=C1N(CC2CC2)CCC12CCN(Cc1ccoc1)CC2 | -8.87
CC(=O)c1cc(C(=O)N2CC[C@@H]3CC[C@H](C2)N3C)c(=O)[nH]c1C | 22.4
COCc1ccccc1NC(=O)NC(C)c1ccc(C)o1 (stereo not drawn) | -3.14
O=C(CCc1ccccn1)N1CCCC(n2cncn2)C1 (stereo not drawn) | -13.6
COCCNC(=O)[C@H]1C[C@@H]2CCN(Cc3ccoc3)C[C@H]2O1 | -15.5
Cc1n[nH]cc1CNC(=O)[C@H]1CCCCN1C(=O)OC(C)(C)C | 8.82
O[C@@H]1CCN(CC2CC2)[C@H]1Cc1ccccc1 | -23
COCc1noc(CNc2nc(C3CCCC3)nc3c2CCNCC3)n1 | -10.6
CCCn1c(C)c(CC(=O)NCCOC)c2c1CC(C)(C)CC2=O | -0.0334
CC(C)CN1CCN(C(=O)Nc2cc(C(F)(F)F)c[nH]c2=O)CC1 | -17.9
O=C(NCc1cccnc1)[C@@H]1CC[C@@H]2[C@@H](CCN2c2ncc(F)cn2)O1 | -3.65
CN(C)CC(=O)N1CCC2(CCc3ccc(-c4ccncc4)cc32)CC1 | 3.66
Cc1cc(C)c(C(=O)NC(CN2CCCC2)c2ccccc2)c(=O)[nH]1 (stereo not drawn) | -20.3
CC[C@H]1COCCN1C(=O)CCCn1nnc(-c2ccc(F)cc2)n1 | -1.69
Cn1cc(C(=O)N[C@@H]2CN(CC3CCOCC3)[C@@H]3CCCO[C@@H]32)cn1 | -7.22
CC(=O)N1CCN(c2ccccc2CNc2cncc(C)c2)CC1 | 4.13
COc1ccc(Br)cc1CC(=O)Nc1cc(C)n[nH]1 | 25.5
Cc1ccccc1OC1CN(Cc2c(C)nc3ccccn23)C1 | 26.8
O=C(NCCC1CC1)NCc1cccc(-n2ccnc2)c1 | -2.8
Cc1ccccc1-c1cncc(C2CCN(CCO)CC2)n1 | -8.45
Cc1c(C2SCC(=O)Nc3c2cnn3C(C)(C)C)cnn1C (stereo not drawn) | -10.1
c1ccc2oc(CCCN3CCCC(Cn4cncn4)C3)nc2c1 (stereo not drawn) | 19.8
COCCN(Cc1ccco1)Cc1nc(-c2ccsc2)no1 | 11.1
